Experiment: E. coli acrAB mutant growth effects, primary screen, E. coli filamentation inducers, strain DRC39, OD650, 48 h (AID 1179);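 also: screen aims at cell division blockers that make cells filament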
Conditions: E. coli DRC39 delta-acrAB growth, higher = more signal, called active from +8 up or from −8 down
Calls of active or inactive are those of the source.
Catalogue of z-score readings, one per entry.

CCOC(=O)C[C@H]1[C@H](OC(=O)c2ccc(-c3ccccc3)cc2)[C@@H](NC(=O)C2CCCCC2)c2cc(OCCCO)ccc2N1C(=O)Cc1ccc(OC)cc1 : 0.0016 (inactive)
C=CC[C@H](O)c1ccc(O)c(F)c1 : 0.0282 (inactive)
C[C@]12C(=O)N(CCO)[C@@H]3C(=O)N(c4ccc(Cl)cc4)CC=CC31O[C@@H]1/C=C\CCCOC(=O)C12 (stereo partly specified) : -1.25 (inactive)

Let us move to another entry and its z-score.
Give the reported z-score for this molecule. COc1ccc(C(=O)Nc2ccc(CN3C(=O)[C@]4(O[C@H](CC(=O)N(CCO)Cc5ccccc5)[C@@H]([Si](C)(C)c5ccc(OC)cc5)[C@@H]4C)c4ccccc43)cc2)cc1 -0.575 (inactive)

Data origin, for the record: PubChem BioAssay
